Reference source for all entries: paper PMC12040169

Test: in vitro
Conditions: human, hela cells, % viability
readout: viability at 28.5 h, 10 µM (%)
Record the value in %, omitting the unit from your answer.

These solved cases illustrate the format of a correct answer.
[[record]]
compound = "CC(C)c1ccc(/C=C/C(=O)NCc2ccc(C#N)cc2)cc1 [CBK149642]"
quantity_unit = "%"
numeric_value = 91

[[record]]
compound = "CCOc1ccc(NC(=O)NC(CC)c2cnn(C)c2)cc1Cl (stereo not drawn) [CBK307262]"
quantity_unit = "%"
numeric_value = 107

[[record]]
compound = "Cc1cc(-c2cn3cc(C(=O)NCCO)nc3c(=O)n2C)c(C)o1 [CBK307288]"
quantity_unit = "%"
numeric_value = 89.4

[[record]]
compound = "CCOC(=O)c1cnc2c(C)cc(C)cc2c1NCCCN(C)C [CBK266021]"
quantity_unit = "%"
numeric_value = 76.5

[[record]]
compound = "CCOC(=O)c1ccc(-c2ccc(/C=N/N=C3\\NC(=O)C(CC(=O)O)S3)o2)cc1 (stereo not drawn) [CBK264474]"
quantity_unit = "%"
numeric_value = 108


The compound CC1CCCCC1NC(=O)Cn1ncc2cccn2c1=O (stereo not drawn) [CBK283673] showed viability at 28.5 h, 10 µM equal to 98.7

Value of viability at 28.5 h, 10 µM reported for the compound O=C(COc1ccccc1)Nc1cnc(-c2ccc(F)cc2)c(-c2ccsc2)n1 [CBK036958] is 91.7

viability at 28.5 h, 10 µM reading for Cc1ccc(S(=O)(=O)N2CCOCC2)cc1-c1cnc(N)c(-c2ccc(O)cc2)n1 [CBK122519] : 98.7

Data point: N/C(Cc1ccc(Cl)cc1Cl)=N\OC(=O)c1cccc([N+](=O)[O-])c1 [CBK264317] ; viability at 28.5 h, 10 µM = 91
